Kindly state log10 of Vd for each of the entries shown.
- test_description: clinical
- condition_description: human, in vivo, iv, Vdss
Answers are given as log10 of Vd in L/kg.

Determine its reported log10 of Vd: CN1CC[C@]23c4c5ccc(O)c4O[C@H]2[C@@H](O[C@@H]2O[C@H](C(=O)O)[C@@H](O)[C@H](O)[C@H]2O)C=C[C@H]3[C@H]1C5 [MORPHINE GLUCURONIDE]
-0.92

Determine its reported log10 of Vd: CC#CCC(C)[C@H](O)/C=C/[C@@H]1[C@H]2C/C(=C/CCCC(=O)O)C[C@H]2C[C@H]1O (some centres not stated)
-0.43

Determine its reported log10 of Vd: CC(C)(C)NCC(O)COc1ccc(NC(=O)NC2CCCCC2)cc1 (configuration not stated)
0.52

Determine its reported log10 of Vd: NC(=O)CC[C@@H]1NC(=O)[C@H](Cc2ccccc2)NC(=O)[C@H](Cc2ccc(O)cc2)NC(=O)CCSSC[C@@H](C(=O)N2CCC[C@H]2C(=O)N[C@H](CCCN=C(N)N)C(=O)NCC(N)=O)NC(=O)[C@H](CC(N)=O)NC1=O
-0.52

Determine its reported log10 of Vd: COc1cc2c(c(OC)c1OC)-c1ccc(OC)c(=O)cc1[C@@H](NC(C)=O)CC2
0.79

Determine its reported log10 of Vd: NC(=O)c1csc([C@@H]2O[C@H](CO)[C@@H](O)[C@H]2O)n1
0.04

Determine its reported log10 of Vd: COc1nc(N)nc2c1ncn2[C@@H]1O[C@H](CO)[C@@H](O)[C@@H]1O
0.69
